TARGET OR TEST SYSTEM: EML4-ALK G1269A transformed Ba/F3 cells (Homo sapiens, UniProt Q9UM73, G1269A, cells depend on it)
Sequence (Q9UM73 19-1620 G1269A limits assumed): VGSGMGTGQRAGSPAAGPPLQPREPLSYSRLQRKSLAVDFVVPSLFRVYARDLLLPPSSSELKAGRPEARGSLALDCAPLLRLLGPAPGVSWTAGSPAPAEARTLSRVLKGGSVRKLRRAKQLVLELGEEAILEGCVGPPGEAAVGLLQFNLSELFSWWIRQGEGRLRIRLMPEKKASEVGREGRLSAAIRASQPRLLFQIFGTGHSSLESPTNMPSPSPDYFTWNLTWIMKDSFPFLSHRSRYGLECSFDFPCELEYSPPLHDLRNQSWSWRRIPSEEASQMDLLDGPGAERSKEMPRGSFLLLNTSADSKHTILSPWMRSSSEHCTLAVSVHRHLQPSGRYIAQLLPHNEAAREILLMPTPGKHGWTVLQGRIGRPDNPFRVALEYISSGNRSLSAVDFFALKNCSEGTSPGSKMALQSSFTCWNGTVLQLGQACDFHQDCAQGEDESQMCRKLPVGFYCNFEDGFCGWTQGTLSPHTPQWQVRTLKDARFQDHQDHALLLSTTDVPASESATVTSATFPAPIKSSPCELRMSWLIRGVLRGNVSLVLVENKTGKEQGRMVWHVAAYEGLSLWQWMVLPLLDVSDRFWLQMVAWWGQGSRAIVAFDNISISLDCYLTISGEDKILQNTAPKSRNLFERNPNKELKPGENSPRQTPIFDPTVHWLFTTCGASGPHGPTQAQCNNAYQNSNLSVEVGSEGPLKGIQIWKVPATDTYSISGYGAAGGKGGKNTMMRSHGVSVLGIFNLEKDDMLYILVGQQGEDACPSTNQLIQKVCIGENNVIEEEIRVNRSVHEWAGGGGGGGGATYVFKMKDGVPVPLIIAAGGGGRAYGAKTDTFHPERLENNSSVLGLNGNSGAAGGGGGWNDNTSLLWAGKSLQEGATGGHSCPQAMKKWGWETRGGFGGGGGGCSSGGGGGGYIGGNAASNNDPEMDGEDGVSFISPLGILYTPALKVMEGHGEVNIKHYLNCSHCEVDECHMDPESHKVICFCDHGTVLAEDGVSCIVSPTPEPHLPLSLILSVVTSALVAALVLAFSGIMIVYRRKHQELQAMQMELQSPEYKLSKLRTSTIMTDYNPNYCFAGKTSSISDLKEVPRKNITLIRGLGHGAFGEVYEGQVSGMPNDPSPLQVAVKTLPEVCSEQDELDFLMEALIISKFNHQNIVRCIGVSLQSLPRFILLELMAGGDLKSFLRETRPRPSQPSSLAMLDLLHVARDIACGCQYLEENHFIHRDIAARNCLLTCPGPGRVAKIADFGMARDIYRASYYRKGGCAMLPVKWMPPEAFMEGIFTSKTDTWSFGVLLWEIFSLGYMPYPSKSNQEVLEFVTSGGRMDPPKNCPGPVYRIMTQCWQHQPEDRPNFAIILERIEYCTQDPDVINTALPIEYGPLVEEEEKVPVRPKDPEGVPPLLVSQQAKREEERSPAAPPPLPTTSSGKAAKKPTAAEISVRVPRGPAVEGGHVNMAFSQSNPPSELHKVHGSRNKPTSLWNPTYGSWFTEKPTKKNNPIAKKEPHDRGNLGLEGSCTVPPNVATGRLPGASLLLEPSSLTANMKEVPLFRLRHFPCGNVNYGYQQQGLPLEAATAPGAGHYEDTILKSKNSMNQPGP
EXPERIMENT NOTES: Ba/F3 dose escalation MTS viability assay
CONDITION INFO: 72 hours
Kindly supply the reported pIC50 values for the records listed here.
Give bare numbers, as −log10 of the molar value.

Worked set:
SMILES | RECORDED MEASUREMENT
CCc1cc2c(cc1N1CCC(N(C)C)CC1)C(C)(C)c1[nH]c3cc(C#N)ccc3c1C2=O | 8.52
CCc1cc2c(cc1-c1cnoc1)C(C)(C)c1[nH]c3cc(C#N)ccc3c1C2=O | 6.73
CCc1cc2c(cc1-c1cnn[nH]1)C(C)(C)c1[nH]c3cc(C#N)ccc3c1C2=O | 6.59

Now look at this entry.
# pIC50 lookup, item CCc1cc2c(cc1-c1cnn(CCN(C)C)c1)C(C)(C)c1[nH]c3cc(C#N)ccc3c1C2=O
7.96
